# ASSAY_EXPLANATION: growth suppression of beta-catenin knockout HCT116, pilot screen, human colon tumor cells (AID 823);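 further: 0% = wells killed by 20 µM Hyamine and 100% = untreated DMSO cell wells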
# SETTINGS: CellTiter-Glo, 60 h, at 10 µM, active compounds read low
Records with an inconclusive call do not appear.
Catalogue of viability values
Just the number please, in %, no unit attached.

Use the examples below as a reference point.
• CCOC(=O)N1CCC(NC(=O)C2CCCCN2S(=O)(=O)c2ccc(F)cc2)CC1 (stereo not given) = 94
• COC(=O)Cn1c(CN2CCN(c3ccc(F)cc3)CC2)nc2c1c(=O)n(C)c(=O)n2C = 85.1
• CCC(=O)N/C(=N/c1nc(C)cc(C)n1)Nc1cccc(OC)c1 = 41.1
• COc1ccc(CNC(=O)c2onc(C)c2Cl)cc1 = 96
• Cc1cc(NC(=O)CSc2cn(C)c3ccccc23)no1 = 97.6
• Cc1cc(C)cc(N(CC(=O)Nc2c(C)n(C)n(-c3ccccc3)c2=O)S(C)(=O)=O)c1 = 96.2
• COc1ccc(C)c2sc(=NC(=O)c3ccc(C#N)cc3)n(C)c12 = 85.3
• CCOC(=O)C1CCCN(C(=O)c2ccc(CS(=O)(=O)c3ccc(C)cc3)o2)C1 (stereo not given) = 110

[Q] For COC(=O)CN1C(=O)C(O)(CC(=O)c2ccc(Br)cc2)c2ccccc21 (stereo not given) , write its viability.
[A] 92.4

[Q] For COc1ccc2nc(NC(=O)c3ccc4ncsc4c3)sc2c1 , write its viability.
[A] 81.3
